Reference source for all entries: PubChem BioAssay AID401

- Measured Target: Tyrosine-protein phosphatase non-receptor type 7 (Homo sapiens) (UniProt P35236)
- Sequence (P35236 whole entry, looked up): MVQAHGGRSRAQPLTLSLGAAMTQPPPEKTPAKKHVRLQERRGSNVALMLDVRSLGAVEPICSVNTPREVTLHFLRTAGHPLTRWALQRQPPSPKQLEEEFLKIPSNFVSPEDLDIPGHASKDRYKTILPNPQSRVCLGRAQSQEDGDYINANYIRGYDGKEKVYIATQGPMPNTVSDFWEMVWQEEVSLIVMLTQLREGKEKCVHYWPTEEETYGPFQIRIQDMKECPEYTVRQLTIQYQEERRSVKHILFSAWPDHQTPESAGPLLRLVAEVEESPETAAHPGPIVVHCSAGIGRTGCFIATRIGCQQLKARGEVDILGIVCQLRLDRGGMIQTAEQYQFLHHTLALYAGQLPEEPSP
- Method: inhibition of HePTP dephosphorylation activity – biochemical, DiFMUP fluorescence, recombinant human enzyme (AID 401)
- Condition Description: recombinant PTPN7, DiFMUP fluorescence; at 50 µM; enzyme 55 ng/mL; 25 °C; DTT 5 mM; active compounds read high
Readout: inhibition (%)
Give bare numbers, in %.

Ask: # inhibition lookup, item "CC(C)CCN1C(=O)c2ccc(C(=O)Nc3ccc(O)cc3C(=O)O)cc2C1=O"
Reply: 45

Ask: # inhibition lookup, item "Cc1cc(C)c(N2C(=O)c3ccc(C(=O)Nc4ccc(O)cc4C(=O)O)cc3C2=O)c(C)c1"
Reply: 44

Ask: # inhibition lookup, item "O=C(O)c1ccc(O)c(C=Nc2cccc(-c3nc4ccccc4o3)c2)c1"
Reply: 40

Hello, I would appreciate it if you could give inhibition for each entry below.
1. Cc1c(Cl)c(C)c([N+](=O)[O-])c(O)c1C=Nc1ccc(O)cc1C(=O)O
2. OO.OO.[K+].[O]=[V].c1ccc(-c2ccccn2)nc1

Reply:
1. 62
2. 69
